Biological target: CX3CR1 (Homo sapiens, UniProt P49238)
Construct: purchased Promega (in-house HiBiT-GPCR construct library, NanoBRET)
Sequence (P49238 whole entry): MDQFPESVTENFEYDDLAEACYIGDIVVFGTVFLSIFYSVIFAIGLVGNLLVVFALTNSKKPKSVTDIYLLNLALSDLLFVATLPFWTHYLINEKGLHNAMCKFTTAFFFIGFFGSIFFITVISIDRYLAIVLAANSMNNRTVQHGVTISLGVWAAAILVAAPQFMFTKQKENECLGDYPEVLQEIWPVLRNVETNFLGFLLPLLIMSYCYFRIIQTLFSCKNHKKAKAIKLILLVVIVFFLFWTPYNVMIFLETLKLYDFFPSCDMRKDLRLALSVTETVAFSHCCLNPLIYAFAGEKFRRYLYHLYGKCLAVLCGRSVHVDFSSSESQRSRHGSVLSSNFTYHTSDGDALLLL
Experiment: NanoBRET screen HiBiT-CX3CR1 in HEK293
Assay type: binding
Settings: CX3CR1; tracer 1μM
Method: Each tracer candidate was screened across the entire library of HiBiT-GPCR constructs using NanoBRET as the detection modality. As depicted in Figure 4A, the specificity of interactions was evaluated through decrease in BRET due to competitive displacement of a bound tracer by excess parental compound. Each tracer was analyzed for binding to each HiBiT-GPCR fusion in the absence and in the presence of competing parental compound. […]
So basically: is NanoBRET Fold Response under 0.9? Then 1. Not under? Then -1.

Example results:
O=C(CCc1ccc2n1[B-](F)(F)[N+]1=C(c3ccc[nH]3)C=CC1=C2)NCc1ccc(C(=O)NCCOCCC(=O)N[C@@H]2CC[C@@]3(O)[C@H]4Cc5ccc(O)c6c5[C@@]3(CCN4CC3CC3)[C@H]2O6)cc1 [Naltrexone-3-NB590] = 1
CC(C)N(CC[C@H](c1ccccc1)c1cc(CCNC(=O)c2ccc(CNC(=O)CCc3ccc4n3[B-](F)(F)[N+]3=C(c5ccc[nH]5)C=CC3=C4)cc2)ccc1O)C(C)C [Tolterodine-BZ-NB590] = -1
N#CN=C(NCCCOc1cccc(CN2CCCCC2)c1)NCCNC(=O)CCOCCOCCOCCOCCNC(=O)CCc1ccc2n1[B-](F)(F)[N+]1=C(c3ccc[nH]3)C=CC1=C2 [Aminopotentidine-2-NB590] = -1
Cc1cc2c(s1)Nc1ccccc1N=C2N1CCN(CCCNC(=O)CCOCCOCCOCCOCCNC(=O)CCc2ccc3n2[B-](F)(F)[N+]2=C(c4ccc[nH]4)C=CC2=C3)CC1 [Olanzapine-a-2-NB590] = -1
O=C(CCc1ccc2n1[B-](F)(F)[N+]1=C(c3ccc[nH]3)C=CC1=C2)NCCOCCOCCNC(=O)OCCOCCN1CCN(C2=Nc3ccccc3Sc3ccccc32)CC1 [Quetiapine-a-2-NB590] = -1

Note: attention shifts to another entry.
Please indicate whether the reported NanoBRET Fold Response of CCCn1c(=O)c2[nH]c(-c3ccc(OCC(=O)NCCNC(=O)CCOCCNC(=O)c4ccc(CNC(=O)CCc5ccc6n5[B-](F)(F)[N+]5=C(c7ccc[nH]7)C=CC5=C6)cc4)cc3)nc2n(CCC)c1=O [XAC-3-NB590] is strictly below 0.9.
1

Hello, the source for this data is paper PMC8151276, in case you need it.
